Target entity: UniProt P04150
Sequence (P04150 540-777): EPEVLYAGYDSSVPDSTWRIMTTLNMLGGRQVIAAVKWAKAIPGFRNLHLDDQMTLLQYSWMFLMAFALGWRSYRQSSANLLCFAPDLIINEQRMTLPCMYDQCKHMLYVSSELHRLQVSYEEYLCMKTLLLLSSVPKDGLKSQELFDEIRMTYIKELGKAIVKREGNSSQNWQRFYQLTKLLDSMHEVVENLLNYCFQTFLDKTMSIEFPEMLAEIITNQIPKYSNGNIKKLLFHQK
Protocol text: Functional assay of glucocorticoid receptor antagonism (Gal4-GR-LBD luciferase reporter, COS-7 cells)
Stated conditions: antagonism of dexamethasone (10 nM)-induced GR activity
Recorded IC50 for the following compounds

Would you please look over these solved cases?
1. O=C1CCC2(c3ccc(F)cc3)OC3(CN12)c1ccccc1C=Cc1ccccc13 (stereo not drawn) [FRS-3] = > 10 µM
2. CC1(C)OC2(CN1C(=O)Nc1ccc(F)cc1F)c1ccccc1C=Cc1ccccc12 [SOXS-1] = > 10 µM
3. CC12CCC(=O)N1CC1(O2)c2ccccc2CCc2ccccc21 (stereo not drawn) [FRS-13] = > 10 µM
4. O=C1CCC2(c3cccs3)OC3(CN12)c1ccccc1C=Cc1ccccc13 (stereo not drawn) [FRS-8] = 1 to 10 µM
5. CC12CCC(=O)N1CC1(O2)c2ccccc2C=Cc2ccccc21 (stereo not drawn) [FRS-1] = > 10 µM

Per the record, CC12CCCC(=O)N1CC1(O2)c2ccccc2CCc2ccccc21 (stereo not drawn) [FRS-14] has IC50 of > 10 µM

The recorded IC50 for entry CC12CCCCC(=O)N1CC1(O2)c2ccccc2C=Cc2ccccc21 (stereo not drawn) [FRS-6] equals > 10 µM

// sample CC1(C)OC2(CN1S(C)(=O)=O)c1ccccc1C=Cc1ccccc12 [SOXS-4] , its IC50 was > 10 µM

Record O=C1CCC2(c3ccccc3)OC3(CN12)c1ccccc1C=Cc1ccccc13 (stereo not drawn) [FRS-2] , field IC50: > 10 µM
